Molecular target: recombinant hNK1R expressed in CHO cells (Homo sapiens)
Sequence (P25103 whole entry): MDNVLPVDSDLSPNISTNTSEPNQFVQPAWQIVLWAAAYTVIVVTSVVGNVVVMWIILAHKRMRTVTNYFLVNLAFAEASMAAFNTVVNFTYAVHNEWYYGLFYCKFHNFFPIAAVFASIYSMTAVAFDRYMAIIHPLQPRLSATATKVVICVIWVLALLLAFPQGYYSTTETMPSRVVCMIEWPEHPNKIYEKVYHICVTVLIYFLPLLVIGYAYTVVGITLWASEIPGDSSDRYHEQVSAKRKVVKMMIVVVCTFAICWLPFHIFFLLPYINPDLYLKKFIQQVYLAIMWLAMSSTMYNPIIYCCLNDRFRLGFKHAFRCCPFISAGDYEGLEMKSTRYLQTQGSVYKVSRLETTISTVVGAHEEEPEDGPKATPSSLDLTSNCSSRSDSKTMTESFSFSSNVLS
Assay: Intracellular calcium mobilization (FLIPR) in CHO-hNK1 cells
Type: cell-based
Settings: calcium mobilization, CHO-hNK1 cells; read-out: hNK1 EC50
Where a SMILES comes first, the peptide text is derived from it.
Consider the following molecules; for each one, report its pEC50.
One number for each entry, as −log10 of the molar value.

Take a look at these entries with their results.
Molecule	Study target	Observed
CCCC[C@H](NC(=O)[C@H](CC(C)C)N(C)C(=O)CNC(=O)[C@@H](NC(=O)[C@H](Cc1ccccc1)NC(=O)[C@H](CCCNC(=N)N)NC(=O)[C@@H](N)CC(=O)O)C(C)C)C(N)=O [Compound B, Asp-Arg-Phe-Val-Gly-(NMe-Leu)-Nle-NH2] (HELM PEPTIDE1{D.R.F.V.G.[meL].[Nle].[am]}$$$$V2.0; N-terminus assumed)	recombinant hNK1R expressed in CHO cells (Homo sapiens)	8.23
CSCC[C@H](NC(=O)[C@H](CC(C)C)NC(=O)CCNC(=O)[C@@H](NC(=O)[C@H](Cc1ccccc1)NC(=O)[C@H](CCCCN)NC(=O)[C@@H](N)CC(=O)O)C(C)C)C(N)=O [Compound E, Asp-Lys-Phe-Val-(β-Ala)-Leu-Met-NH2] (HELM PEPTIDE1{D.K.F.V.[bAla].L.M.[am]}$$$$V2.0; N-terminus assumed)	recombinant hNK1R expressed in CHO cells (Homo sapiens)	8.20
CCCC[C@H](NC(=O)[C@H](CC(C)C)NC(=O)CNC(=O)[C@@H](NC(=O)[C@H](Cc1ccccc1)NC(=O)[C@H](CCCCN)NC(=O)[C@@H](N)CC(=O)O)C(C)C)C(N)=O	recombinant hNK1R expressed in CHO cells (Homo sapiens)	8.63
CSCC[C@H](NC(=O)[C@H](CC(C)C)NC(=O)CCNC(=O)[C@@H](NC(=O)[C@H](Cc1ccccc1)NC(=O)[C@H](CCCNC(=N)N)NC(=O)[C@@H](N)CC(=O)O)C(C)C)C(N)=O [I, Asp-Arg-Phe-Val-(β-Ala)-Leu-Met-NH2] (HELM PEPTIDE1{D.R.F.V.[bAla].L.M.[am]}$$$$V2.0; N-terminus assumed)	recombinant hNK1R expressed in CHO cells (Homo sapiens)	8.74
CCCC[C@H](NC(=O)[C@H](CC(C)C)NC(=O)CCNC(=O)[C@@H](NC(=O)[C@H](Cc1ccccc1)NC(=O)[C@H](CCCNC(=N)N)NC(=O)[C@@H](N)CC(=O)O)C(C)C)C(N)=O [K, Asp-Arg-Phe-Val-(β-Ala)-Leu-Nle-NH2] (HELM PEPTIDE1{D.R.F.V.[bAla].L.[Nle].[am]}$$$$V2.0; N-terminus assumed)	recombinant hNK1R expressed in CHO cells (Homo sapiens)	7.53
CSCC[C@H](NC(=O)[C@H](CC(C)C)NC(=O)CNC(=O)[C@@H](NC(=O)[C@H](Cc1ccccc1)NC(=O)[C@H](CCCCN)NC(=O)[C@@H](N)CC(=O)O)C(C)C)C(N)=O	recombinant hNK1R expressed in CHO cells (Homo sapiens)	9.39

Please find the next molecule below.
stdin: Report measured pEC50 on recombinant hNK1R expressed in CHO cells (Homo sapiens); entry: CSCC[C@H](NC(=O)[C@H](CC(C)C)N(C)C(=O)CNC(=O)[C@@H](NC(=O)[C@H](Cc1ccccc1)NC(=O)[C@H](CCCNC(=N)N)NC(=O)[C@@H](N)CC(=O)O)C(C)C)C(N)=O [C, Asp-Arg-Phe-Val-Gly-(NMe-Leu)-Met-NH2] (HELM PEPTIDE1{D.R.F.V.G.[meL].M.[am]}$$$$V2.0; N-terminus assumed)
stdout: 9.52

###

Target: recombinant hNK2R expressed in CHO cells (Homo sapiens, UniProt P21452)
Sequence (P21452 whole entry): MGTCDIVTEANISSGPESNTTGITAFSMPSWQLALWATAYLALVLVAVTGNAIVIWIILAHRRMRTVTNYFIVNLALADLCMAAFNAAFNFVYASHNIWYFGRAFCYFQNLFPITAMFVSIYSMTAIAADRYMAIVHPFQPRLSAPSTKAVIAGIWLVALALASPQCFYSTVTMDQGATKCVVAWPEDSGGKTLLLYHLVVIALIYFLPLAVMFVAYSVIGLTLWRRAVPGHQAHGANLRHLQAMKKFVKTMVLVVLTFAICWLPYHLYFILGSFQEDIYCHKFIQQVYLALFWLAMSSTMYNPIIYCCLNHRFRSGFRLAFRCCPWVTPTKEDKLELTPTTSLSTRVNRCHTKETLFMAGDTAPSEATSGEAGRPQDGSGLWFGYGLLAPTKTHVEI
Assay: Intracellular calcium mobilization (FLIPR) in CHO-hNK2 cells
Assay type: cell-based
Settings: calcium mobilization, CHO-hNK2 cells; read-out: hNK2 EC50
Where a SMILES comes first, the peptide text is derived from it.
Kindly supply the reported EC50 values for the records listed here.
Give bare numbers, in pM.

// known answers, use as guide
Compound	EC50, pM
CCCC[C@H](NC(=O)[C@H](CC(C)C)NC(=O)CCNC(=O)[C@@H](NC(=O)[C@H](Cc1ccccc1)NC(=O)[C@H](CCCNC(=N)N)NC(=O)[C@@H](N)CC(=O)O)C(C)C)C(N)=O [K, Asp-Arg-Phe-Val-(β-Ala)-Leu-Nle-NH2] (HELM PEPTIDE1{D.R.F.V.[bAla].L.[Nle].[am]}$$$$V2.0; N-terminus assumed)	1160
CSCC[C@H](NC(=O)[C@H](CC(C)C)N(C)C(=O)CNC(=O)[C@@H](NC(=O)[C@H](Cc1ccccc1)NC(=O)[C@H](CCCNC(=N)N)NC(=O)[C@@H](N)CC(=O)O)C(C)C)C(N)=O [C, Asp-Arg-Phe-Val-Gly-(NMe-Leu)-Met-NH2] (HELM PEPTIDE1{D.R.F.V.G.[meL].M.[am]}$$$$V2.0; N-terminus assumed)	160
CCCC[C@H](NC(=O)[C@H](CC(C)C)NC(=O)CNC(=O)[C@@H](NC(=O)[C@H](Cc1ccccc1)NC(=O)[C@H](CCCNC(=N)N)NC(=O)[C@@H](N)CC(=O)O)C(C)C)C(N)=O [J, Asp-Arg-Phe-Val-Gly-Leu-Nle-NH2] (HELM PEPTIDE1{D.R.F.V.G.L.[Nle].[am]}$$$$V2.0; N-terminus assumed)	200
CCCC[C@H](NC(=O)[C@H](CC(C)C)N(C)C(=O)CNC(=O)[C@@H](NC(=O)[C@H](Cc1ccccc1)NC(=O)[C@H](CCCNC(=N)N)NC(=O)[C@@H](N)CC(=O)O)C(C)C)C(N)=O [Compound B, Asp-Arg-Phe-Val-Gly-(NMe-Leu)-Nle-NH2] (HELM PEPTIDE1{D.R.F.V.G.[meL].[Nle].[am]}$$$$V2.0; N-terminus assumed)	80

Report EC50 for each item below.
1. CSCC[C@H](NC(=O)[C@H](CC(C)C)NC(=O)CCNC(=O)[C@@H](NC(=O)[C@H](Cc1ccccc1)NC(=O)[C@H](CCCNC(=N)N)NC(=O)[C@@H](N)CC(=O)O)C(C)C)C(N)=O [I, Asp-Arg-Phe-Val-(β-Ala)-Leu-Met-NH2] (HELM PEPTIDE1{D.R.F.V.[bAla].L.M.[am]}$$$$V2.0; N-terminus assumed)
2. CCCC[C@H](NC(=O)[C@H](CC(C)C)NC(=O)CCNC(=O)[C@@H](NC(=O)[C@H](Cc1ccccc1)NC(=O)[C@H](CCCCN)NC(=O)[C@@H](N)CC(=O)O)C(C)C)C(N)=O [Compound G, Asp-Lys-Phe-Val-(β-Ala)-Leu-Nle-NH2] (HELM PEPTIDE1{D.K.F.V.[bAla].L.[Nle].[am]}$$$$V2.0; N-terminus assumed)
3. CSCC[C@H](NC(=O)[C@H](CC(C)C)NC(=O)CNC(=O)[C@@H](NC(=O)[C@H](Cc1ccccc1)NC(=O)[C@H](CCCCN)NC(=O)[C@@H](N)CC(=O)O)C(C)C)C(N)=O
4. CCCC[C@H](NC(=O)[C@H](CC(C)C)NC(=O)CNC(=O)[C@@H](NC(=O)[C@H](Cc1ccccc1)NC(=O)[C@H](CCCCN)NC(=O)[C@@H](N)CC(=O)O)C(C)C)C(N)=O
5. CSCC[C@H](NC(=O)[C@H](CC(C)C)NC(=O)CCNC(=O)[C@@H](NC(=O)[C@H](Cc1ccccc1)NC(=O)[C@H](CCCCN)NC(=O)[C@@H](N)CC(=O)O)C(C)C)C(N)=O [Compound E, Asp-Lys-Phe-Val-(β-Ala)-Leu-Met-NH2] (HELM PEPTIDE1{D.K.F.V.[bAla].L.M.[am]}$$$$V2.0; N-terminus assumed)

stdout:
[150, 3000, 90, 380, 180]

###

Assay: Pharmacokinetics in rat plasma after cassette IV bolus dosing
Details: Sprague-Dawley, in vivo, iv
Where a SMILES comes first, the peptide text is derived from it.
Exercise: for every item that follows, state its recorded half-life.

Here is how some compounds turned out for half-life.
Compound	half-life
CCCC[C@H](NC(=O)[C@H](CC(C)C)NC(=O)CCNC(=O)[C@@H](NC(=O)[C@H](Cc1ccccc1)NC(=O)[C@H](CCCCN)NC(=O)[C@@H](N)CC(=O)O)C(C)C)C(N)=O [Compound G, Asp-Lys-Phe-Val-(β-Ala)-Leu-Nle-NH2] (HELM PEPTIDE1{D.K.F.V.[bAla].L.[Nle].[am]}$$$$V2.0; N-terminus assumed)	3.3 to 4.7 min
CCCC[C@H](NC(=O)[C@H](CC(C)C)N(C)C(=O)CNC(=O)[C@@H](NC(=O)[C@H](Cc1ccccc1)NC(=O)[C@H](CCCNC(=N)N)NC(=O)[C@@H](N)CC(=O)O)C(C)C)C(N)=O [Compound B, Asp-Arg-Phe-Val-Gly-(NMe-Leu)-Nle-NH2] (HELM PEPTIDE1{D.R.F.V.G.[meL].[Nle].[am]}$$$$V2.0; N-terminus assumed)	0.2 to 1.2 min
CCCC[C@H](NC(=O)[C@H](CC(C)C)NC(=O)CCNC(=O)[C@@H](NC(=O)[C@H](Cc1ccccc1)NC(=O)[C@H](CCCNC(=N)N)NC(=O)[C@@H](N)CC(=O)O)C(C)C)C(N)=O [K, Asp-Arg-Phe-Val-(β-Ala)-Leu-Nle-NH2] (HELM PEPTIDE1{D.R.F.V.[bAla].L.[Nle].[am]}$$$$V2.0; N-terminus assumed)	3.3 to 4.7 min

In the following, a different compound is considered.
stdin: State its half-life: CSCC[C@H](NC(=O)[C@H](CC(C)C)NC(=O)CCNC(=O)[C@@H](NC(=O)[C@H](Cc1ccccc1)NC(=O)[C@H](CCCCN)NC(=O)[C@@H](N)CC(=O)O)C(C)C)C(N)=O [Compound E, Asp-Lys-Phe-Val-(β-Ala)-Leu-Met-NH2] (HELM PEPTIDE1{D.K.F.V.[bAla].L.M.[am]}$$$$V2.0; N-terminus assumed)
stdout: 3.3 to 4.7 min

Value source: patent US11352391B2
